Recorded pEC50 values for a group of binders are listed next.
tested system: T1, human CD30L expressed on cells (human, UniProt P32971 1-234)
T1 construct: whole, on cells; also called huCD30L; B16-huCD30L cells
T1 sequence (looked up): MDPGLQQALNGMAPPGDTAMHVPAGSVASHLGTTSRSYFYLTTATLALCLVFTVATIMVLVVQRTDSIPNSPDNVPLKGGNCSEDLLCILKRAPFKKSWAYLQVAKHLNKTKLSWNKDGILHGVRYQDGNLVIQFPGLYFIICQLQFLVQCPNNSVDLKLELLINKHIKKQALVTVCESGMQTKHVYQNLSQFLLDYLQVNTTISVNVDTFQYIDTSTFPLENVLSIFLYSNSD
method description: flow cytometry, B16-huCD30L cells
pEC50 field: float, defined as -log10 of concentration (mol/L).

{"binder": "Clone 2, Human IgG1 (antibody, V domains shown, Human IgG1 format) VH: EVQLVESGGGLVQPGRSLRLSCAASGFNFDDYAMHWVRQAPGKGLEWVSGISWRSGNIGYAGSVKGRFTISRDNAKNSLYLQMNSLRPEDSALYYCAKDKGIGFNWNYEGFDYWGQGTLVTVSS VL: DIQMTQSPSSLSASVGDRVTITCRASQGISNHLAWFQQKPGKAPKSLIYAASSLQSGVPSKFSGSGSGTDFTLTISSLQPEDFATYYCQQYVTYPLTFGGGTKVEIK", "pEC50": 9.09}
{"binder": "Clone 1, Mouse IgG (antibody, V domains shown, Mouse IgG format) VH: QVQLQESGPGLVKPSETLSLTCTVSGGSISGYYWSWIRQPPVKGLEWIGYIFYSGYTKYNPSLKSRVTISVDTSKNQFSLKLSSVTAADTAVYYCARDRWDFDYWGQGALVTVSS VL: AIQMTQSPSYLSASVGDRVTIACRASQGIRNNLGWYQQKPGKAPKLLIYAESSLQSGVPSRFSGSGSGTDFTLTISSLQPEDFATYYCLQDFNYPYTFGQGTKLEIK", "pEC50": 8.71}
{"binder": "anti-CD30L Reference 1 antibody (antibody, human IgG1, lambda, V domains shown) VH: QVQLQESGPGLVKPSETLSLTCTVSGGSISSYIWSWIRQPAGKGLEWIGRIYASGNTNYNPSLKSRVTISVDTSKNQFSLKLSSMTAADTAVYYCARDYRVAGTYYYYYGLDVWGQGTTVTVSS VL: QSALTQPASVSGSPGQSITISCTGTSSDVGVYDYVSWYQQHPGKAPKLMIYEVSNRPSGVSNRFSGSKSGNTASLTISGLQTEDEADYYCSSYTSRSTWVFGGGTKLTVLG", "pEC50": 8.76}
{"binder": "Clone 2, Mouse IgG (antibody, V domains shown, Mouse IgG format) VH: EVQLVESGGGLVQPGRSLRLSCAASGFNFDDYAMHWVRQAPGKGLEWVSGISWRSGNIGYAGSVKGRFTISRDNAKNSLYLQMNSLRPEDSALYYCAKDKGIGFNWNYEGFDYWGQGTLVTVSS VL: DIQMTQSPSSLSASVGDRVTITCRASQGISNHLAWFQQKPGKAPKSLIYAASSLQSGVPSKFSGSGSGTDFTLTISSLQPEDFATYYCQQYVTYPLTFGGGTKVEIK", "pEC50": 8.92}

The record that follows has no pEC50 shown yet.
What value of pEC50 has been reported for the following binder? Clone 1, Human IgG1 (antibody, V domains shown, Human IgG1 format) VH: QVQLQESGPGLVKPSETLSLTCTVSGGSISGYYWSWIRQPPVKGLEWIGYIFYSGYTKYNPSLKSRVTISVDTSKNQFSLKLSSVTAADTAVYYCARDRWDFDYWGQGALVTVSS VL: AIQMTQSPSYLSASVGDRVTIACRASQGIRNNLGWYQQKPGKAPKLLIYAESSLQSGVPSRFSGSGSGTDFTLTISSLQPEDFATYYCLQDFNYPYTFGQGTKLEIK
8.85
